Target Or System: UniProt Q14833
Sequence (Q14833 whole entry): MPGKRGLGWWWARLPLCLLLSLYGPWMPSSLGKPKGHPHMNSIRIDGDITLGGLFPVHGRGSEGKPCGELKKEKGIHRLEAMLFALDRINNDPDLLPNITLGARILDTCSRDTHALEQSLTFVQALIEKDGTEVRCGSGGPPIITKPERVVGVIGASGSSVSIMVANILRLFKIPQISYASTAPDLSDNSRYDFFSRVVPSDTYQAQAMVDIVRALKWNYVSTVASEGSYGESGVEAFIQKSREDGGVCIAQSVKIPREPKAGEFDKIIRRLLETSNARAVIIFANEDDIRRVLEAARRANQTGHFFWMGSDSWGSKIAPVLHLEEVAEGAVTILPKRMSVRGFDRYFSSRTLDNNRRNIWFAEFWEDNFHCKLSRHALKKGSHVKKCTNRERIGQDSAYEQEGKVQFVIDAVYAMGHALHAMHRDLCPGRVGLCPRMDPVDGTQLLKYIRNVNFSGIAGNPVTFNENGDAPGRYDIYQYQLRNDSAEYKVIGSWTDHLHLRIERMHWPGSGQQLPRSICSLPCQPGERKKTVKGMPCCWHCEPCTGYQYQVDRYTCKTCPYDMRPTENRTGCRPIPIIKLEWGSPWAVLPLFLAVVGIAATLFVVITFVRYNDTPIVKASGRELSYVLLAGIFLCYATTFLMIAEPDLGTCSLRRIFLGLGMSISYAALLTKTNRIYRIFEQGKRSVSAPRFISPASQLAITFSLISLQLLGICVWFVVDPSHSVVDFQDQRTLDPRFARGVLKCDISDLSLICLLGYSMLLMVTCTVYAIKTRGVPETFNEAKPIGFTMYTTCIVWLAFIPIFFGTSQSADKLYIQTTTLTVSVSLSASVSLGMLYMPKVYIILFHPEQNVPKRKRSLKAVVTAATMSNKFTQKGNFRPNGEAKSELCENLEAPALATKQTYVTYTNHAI
Protocol Text: Ca2+ Mobilization In Vitro Assay: About 24 hrs before an experiment, 5×10^4 cells/well were seeded in poly-D-lysine coated, black/clear-bottomed 96-well plates. The cells were loaded with 2.5 μM Fluo-4AM in loading buffer (1×HBSS, 20 mM HEPES) for 1 hr at 37° C. and washed five times with loading buffer. The cells were transferred into a Functional Drug Screening System 7000 (Hamamatsu, Paris, France), and 11 half logarithmic serial dilutions of test compound at 37° C. were added and the cells were incubated for 10-30 min. with on-line recording of fluorescence. Following this pre-incubation step, the agonist (2S)-2-amino-4-phosphonobutanoic acid (L-AP4) was added to the cells at a concentration corresponding to EC20 with on-line recording of fluorescence; in order to account for day-to-day variations in the responsiveness of cells, the EC20 of L-AP4 was determined immediately ahead of each experiment by recording of a full dose-response curve of L-AP4. Responses were measured as peak increase in fluorescence minus basal (i.e. fluorescence without addition of L-AP4), normalized to the maximal stimulatory effect obtained with saturating concentrations of L-AP4. Graphs were plotted with the % maximal stimulatory using XLfit, a curve fitting program that iteratively plots the data using Levenburg Marquardt algorithm. The single site competition analysis equation used was y=A+((B−A)/(1+((x/C)D))), where y is the % maximal stimulatory effect, A is the minimum y, B is the maximum y, C is the EC50, x is the log 10 of the concentration of the competing compound and D is the slope of the curve (the Hill Coefficient). From these curves the EC50 (drug concentration at which 50% of the maximal receptor activation was achieved), the Hill coefficient as well as the maximal response in % of the maximal stimulatory effect obtained with saturating concentrations of L-AP4 were calculated (see FIG. 1).
Property Name: pEC50
As a rule, pEC50 stands for the negative log10 of the concentration, concentration in M.

Give the reported value of pEC50 for this record: O=c1[nH]c2ncsc2c(=O)n1-c1c(F)cc(C#Cc2ccccc2)cc1F
6.73
